Target sequence: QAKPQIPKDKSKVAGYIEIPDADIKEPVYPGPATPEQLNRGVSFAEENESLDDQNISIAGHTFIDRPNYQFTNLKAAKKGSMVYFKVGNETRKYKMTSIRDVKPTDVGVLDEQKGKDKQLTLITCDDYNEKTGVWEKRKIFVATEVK
pIC50: −log10 of the molar value.
result_type: pIC50

{"molecule": "CC(=O)/C=C/c1ccc(O)c(O)c1 [OSC, osmundacetone]", "reported_value": 5.14}
